Data provenance is paper PMC11329366.

Assay Explanation: Phase I first-in-human study: plasma and urine pharmacokinetics
Format: in vivo
Setup Conditions: human, plasma, oral, 360 mg, t 1/2, MAD 360 mg once daily, fed, Day 1; mean (SD)
Measured Quantity: half-life (h)
Record the value in h, omitting the unit from your answer.

*Q* Endpoint output: half-life of CC(=O)N[C@H]1CC[C@H](NC(=O)CN2CCN(c3nncc(-c4ccc(C)cc4)n3)CC2)CC1 . Value?
*A* 4.4

====

Assay Explanation: Phase I first-in-human study: plasma and urine pharmacokinetics
Format: in vivo
Setup Conditions: human, plasma, oral, mean t 1/2, MAD Day 7, range over dose groups
Measured Quantity: half-life

*Q* Endpoint output: half-life of CC(=O)N[C@H]1CC[C@H](NC(=O)CN2CCN(c3nncc(-c4ccc(C)cc4)n3)CC2)CC1 . Value?
*A* 9.1 to 11.9 h
